Tested on: Estrogen receptor (Ovis aries)
procedure_text: Relative binding affinity (RBA) for ER alpha using lamb uterine cytosol determined by a competitive radiometric binding assay using 10 nM [3H]estradiol as the radioligand
test_context: Uterus
Please go through the items and note down their relative binding affinity (RBA).
No unit in the answer, please; the number alone is enough.

-- ask Item CCc1c(-c2ccccc2)oc(-c2ccc(O)cc2)c1-c1ccc(O)cc1 with Estrogen receptor (Ovis aries) - relative binding affinity (RBA)?
-- reply 0.45

-- ask Test system Estrogen receptor (Ovis aries); read-out relative binding affinity (RBA); what value for Oc1ccc(-c2oc(-c3ccc(O)cc3)c(-c3ccc(O)cc3)c2-c2ccc(O)cc2)cc1 ?
-- reply 0.84

-- ask Quick check: relative binding affinity (RBA) on Estrogen receptor (Ovis aries), item CCCc1c(-c2ccc(O)cc2)oc(-c2ccc(O)cc2)c1-c1ccc(O)cc1 ?
-- reply 3.6

-- ask So what relative binding affinity (RBA) did CCc1c(-c2ccc(O)cc2)cc(-c2ccccc2)n1-c1ccc(O)cc1 get with Estrogen receptor (Ovis aries)?
-- reply 0.5

-- ask Notebook entry, Estrogen receptor (Ovis aries) assay: relative binding affinity (RBA) of CCc1c(-c2ccccc2)oc(-c2ccc(O)cc2)c1-c1ccccc1 = ?
-- reply 0.1

-- ask Kindly state the measured relative binding affinity (RBA) obtained for Cc1c(-c2ccc(O)cc2)oc(-c2ccc(O)cc2)c1-c1ccc(O)cc1 with Estrogen receptor (Ovis aries).
-- reply 2.9

-- ask Lab request: please report relative binding affinity (RBA) under test system Estrogen receptor (Ovis aries) for CCCCc1c(-c2ccc(O)cc2)oc(-c2ccc(O)cc2)c1-c1ccc(O)cc1
-- reply 1.3

-- ask Missing value: relative binding affinity (RBA), Estrogen receptor (Ovis aries), entry Oc1ccc(-c2cc(-c3ccc(O)cc3)c(-c3ccccc3)o2)cc1 . Fill in?
-- reply 0.04

-- ask State its relative binding affinity (RBA) on Estrogen receptor (Ovis aries): Oc1ccc(-c2cc(-c3ccccc3)c(-c3ccc(O)cc3)s2)cc1
-- reply 0.03

-- ask I'm curious: which relative binding affinity (RBA) was measured for CCc1c(-c2ccc(O)cc2)oc(-c2ccccc2)c1-c1ccccc1 tested on Estrogen receptor (Ovis aries)?
-- reply 0.44

-- ask // lookup relative binding affinity (RBA) | system=Estrogen receptor (Ovis aries) | key= CCc1c(-c2ccc(O)cc2)oc(-c2ccc(O)cc2)c1-c1ccc(O)cc1
-- reply 6.5

-- ask Form entry - test system: Estrogen receptor (Ovis aries); read-out: relative binding affinity (RBA); compound: Oc1ccc(-c2cc(-c3ccccc3)c(-c3ccc(O)cc3)o2)cc1
-- reply 0.13

-- ask Observed relative binding affinity (RBA) on Estrogen receptor (Ovis aries) for CCc1c(-c2ccc(O)cc2)oc(-c2ccccc2)c1-c1ccc(O)cc1 , please.
-- reply 4.6

-- ask Can you look up relative binding affinity (RBA) on Estrogen receptor (Ovis aries) for CCc1c(-c2ccc(O)cc2)oc(-c2ccc(O)cc2)c1-c1ccccc1 ?
-- reply 0.7

-- ask Look up relative binding affinity (RBA) with Estrogen receptor (Ovis aries) for this compound: CCc1c(-c2ccccc2)oc(-c2ccccc2)c1-c1ccc(O)cc1
-- reply 0.02

The origin of these recorded values is ChEMBL document CHEMBL1134677.
